Source: PubChem BioAssay AID1845202

System: DMS 114 tumor spheroids, viability % test/control
Assay: Anticancer human tumor DMS 114 cell line growth inhibition;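 also: luminescence used as a proxy for viable cells; spheroids exposed to compounds for 7 days before read-out; 100% = DMSO vehicle control viability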
Applied conditions: second compound 100 µM; first compound 0.0316 µM; stronger effect = lower value; spheroids with HUVEC and MSC
Protocol: Multicellular complex tumor spheroid response to DNA repair inhibitors in combination with DNA-damaging drugs This study explores the anticancer activities of DNA-damaging drugs and inhibitors of DNA damage repair, both as single agents and in combinations. […] Twenty-six patient-derived or established malignant cell lines were evaluated representing sarcoma, melanoma, small cell lung cancer (SCLC), non-small cell lung cancer (NSCLC), as well as bladder, ovarian and pancreatic cancers. […]
Value type: viability, T/C (%)
Write down the numeric answer in % and omit the unit.

Solved entries:
* COc1ccc([C@@H](O)c2cc(-c3ncnc4cc(N5CCOCC5)ccc34)c(F)cc2Cl)nn1 + Cn1nnc2c(C(N)=O)ncn2c1=O | 88.8
* [2H]c1nc(C)nc([2H])c1-c1cc(NC[C@@H](C)c2cccc3c(C(=O)NC)ccnc23)ncn1 + Cn1nnc2c(C(N)=O)ncn2c1=O | 93.3
* CC1COCCN1c1cc(-c2ccnn2C)c2ccnc(-c3ccn[nH]3)c2n1 (stereo unspecified) + Cn1nnc2c(C(N)=O)ncn2c1=O | 24
* Cc1cc(C)c(CNC(=O)c2cc(-c3ccc(CN4CCOCC4)cc3)cc3c2cnn3C2CCCC2)c(=O)[nH]1 + Cn1nnc2c(C(N)=O)ncn2c1=O | 103
* COc1cc(C)[nH]c(=O)c1CN1CCc2c(Cl)cc(C(OC)C3COC3)c(Cl)c2C1=O (stereo unspecified) + Cn1nnc2c(C(N)=O)ncn2c1=O | 90.7

Input: Report measured viability, T/C; entry is CC(C)n1c(=O)n(C)c2cnc3cc(F)c(-c4ccc(OCCCN5CCCCC5)nc4)cc3c21 + Cn1nnc2c(C(N)=O)ncn2c1=O
Output: 85.8
